Consider the following molecules; for each one, report its Ratio Ki.
# study.system: Adenosine receptors; A1 & A3 (Homo sapiens) (UniProt P30542+P0DMS8)
# assay.overview: Selectivity ratio of Ki for human adenosine A1 receptor expressed in CHO cells to Ki for human adenosine A3 receptor expressed in CHO CRE-SPAP cells
# Assay type: functional, cell-based
Numbers only.

Below, each entry is followed by its recorded Ratio Ki result.
Name the recorded Ratio Ki for `O=C(Nc1nc(C2CC2)cs1)c1cc2ccccc2s1` .
101

Name the recorded Ratio Ki for `CCc1cc2c(O)ncnc2s1` .
6

// each listed molecule needs a value for Ratio Ki
1. CCc1cc2c(=O)[nH]c(C3CC3)nc2s1
2. Cc1sc2nc(-c3ccoc3)[nH]c(=O)c2c1C
3. CCc1cc2c(=O)[nH]c(-c3ccoc3)nc2s1
4. CSc1sc(NC(=O)C=C(C)C)nc1C

1. 70
2. 4
3. 102
4. 24

###

Consider the following molecules; for each one, report its pKi.
# study.system: UniProtKB P0DMS8
# assay.overview: Displacement of CA200645 from human adenosine A3 receptor expressed in CHO CRE-SPAP cells incubated for 1 hr by fluorescence analysis
# Type: cell-based
# assay.setup: read-out: Ki
Numbers only, as −log10 of the molar value.

Name the recorded pKi for `O=C(Nc1nc(C2CC2)cs1)c1ccoc1` .
6.92

Name the recorded pKi for `COc1cccc2sc(NC(=O)c3cc4ccccc4s3)nc12` .
6.92

Let's switch to this molecule now.
Name the recorded pKi for `O=C(Nc1nc(C2CC2)cs1)c1cc2ccccc2s1` .
7.40

###

# study.system: Adenosine receptor A3 (Homo sapiens, UniProt P0DMS8)
# Sequence (P0DMS8 whole entry, looked up): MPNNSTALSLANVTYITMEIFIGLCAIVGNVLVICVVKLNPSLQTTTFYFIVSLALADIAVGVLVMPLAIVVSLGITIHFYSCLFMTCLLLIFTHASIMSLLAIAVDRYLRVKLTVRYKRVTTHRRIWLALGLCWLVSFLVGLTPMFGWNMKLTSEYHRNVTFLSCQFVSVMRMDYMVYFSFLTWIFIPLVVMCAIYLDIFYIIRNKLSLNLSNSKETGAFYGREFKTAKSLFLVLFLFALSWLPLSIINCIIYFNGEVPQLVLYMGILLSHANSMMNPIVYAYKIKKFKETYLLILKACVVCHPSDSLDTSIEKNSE
# assay.overview: Competitive antagonist activity at YFP linked human adenosine A3 receptor expressed in CHO CRE-SPAP cells assessed as inhibition of NECA-induced receptor internalization preincubated for 30 mins followed by addition of NECA measured after 60 mins by H33342 staining-based fluorescence analysis
assay.readout: Kd (nM)
Answers are plain numbers, in nM.

Name the recorded Kd for `O=C(Nc1nc(C2CC2)cs1)c1cc2ccccc2s1` .
741

More entries:
Name the recorded Kd for `CCc1cc2c(=O)[nH]c(-c3ccoc3)nc2s1` .
741

###

Target sequence: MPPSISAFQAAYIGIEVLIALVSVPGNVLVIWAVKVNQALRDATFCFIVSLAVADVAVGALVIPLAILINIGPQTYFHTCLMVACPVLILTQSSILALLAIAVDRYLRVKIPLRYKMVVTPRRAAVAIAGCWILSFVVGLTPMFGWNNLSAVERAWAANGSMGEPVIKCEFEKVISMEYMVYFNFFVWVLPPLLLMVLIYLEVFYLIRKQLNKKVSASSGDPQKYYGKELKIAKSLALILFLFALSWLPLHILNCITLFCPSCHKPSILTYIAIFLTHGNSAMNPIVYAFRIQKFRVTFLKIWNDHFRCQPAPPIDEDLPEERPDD
Friendly reminder: Ki below 20 µM is true, at or above is false.

Below, 4 molecules whose answers are already recorded.
Hello, I'm reviewing records and need to know if Ki of `CCc1cc2c(O)nc(-c3ccncc3)nc2s1` is below 20 µM. Could you check?
false

Hello, I'm reviewing records and need to know if Ki of `Cc1sc2nc(-c3ccoc3)[nH]c(=O)c2c1C` is below 20 µM. Could you check?
true

Hello, I'm reviewing records and need to know if Ki of `COc1cccc2sc(NC(=O)c3cc4ccccc4s3)nc12` is below 20 µM. Could you check?
true

Hello, I'm reviewing records and need to know if Ki of `O=C(Nc1nc(C2CC2)cs1)c1ccoc1` is below 20 µM. Could you check?
true

More entries:
Hello, I'm reviewing records and need to know if Ki of `CSc1sc(NC(=O)C=C(C)C)nc1C` is below 20 µM. Could you check?
false

###

# study.system: Adenosine receptors; A1 & A3 (Homo sapiens) (UniProt P30542+P0DMS8)
# assay.overview: Selectivity ratio of Ki for human adenosine A1 receptor expressed in CHO cells to Ki for human adenosine A3 receptor expressed in CHO CRE-SPAP cells
# Format: functional, cell-based
Short version: Ratio Ki at least 20 is 1.0, less is 0.0.

Below, 7 compounds whose answers are already recorded.
Please tell me: is the compound `CCc1cc2c(O)nc(-c3ccncc3)nc2s1` at or over 20 in terms of Ratio Ki?
0.0

Please tell me: is the compound `O=C(Nc1ccc2[nH]ncc2c1)c1ccc[nH]1` at or over 20 in terms of Ratio Ki?
0.0

Please tell me: is the compound `CC(C)(C)C(=O)Nc1nc(C2CC2)cs1` at or over 20 in terms of Ratio Ki?
0.0

Please tell me: is the compound `COc1cccc2sc(NC(=O)c3cc4ccccc4s3)nc12` at or over 20 in terms of Ratio Ki?
1.0

Please tell me: is the compound `O=C(Nc1nc(C2CC2)cs1)c1ccoc1` at or over 20 in terms of Ratio Ki?
1.0

Please tell me: is the compound `O=c1[nH]c(-c2ccco2)nc2scc(-c3ccco3)c12` at or over 20 in terms of Ratio Ki?
0.0

Please tell me: is the compound `O=C(Nc1nc2ccccc2s1)c1cc2ccccc2s1` at or over 20 in terms of Ratio Ki?
0.0

Here is another compound to look at.
Please tell me: is the compound `O=C(Nc1nc2c(s1)CCC2)c1cc2ccccc2s1` at or over 20 in terms of Ratio Ki?
0.0

###

# study.system: Adenosine receptor A3 (Homo sapiens, UniProt P0DMS8)
# assay.overview: Displacement of CA200645 from human adenosine A3 receptor expressed in CHO CRE-SPAP cells incubated for 1 hr by fluorescence analysis
# Assay type: cell-based
# assay.setup: read-out: pKi (converted)
Friendly reminder: Ki below 600 nM is TRUE, at or above is FALSE.

Below, 5 compounds whose answers are already recorded.
Hello, I'm reviewing records and need to know if Ki of `CCc1cc2c(O)nc(-c3ccncc3)nc2s1` is below 600 nM. Could you check?
FALSE

Hello, I'm reviewing records and need to know if Ki of `O=C(Nc1nc2c(s1)CCC2)c1cc2ccccc2s1` is below 600 nM. Could you check?
TRUE

Hello, I'm reviewing records and need to know if Ki of `O=c1[nH]c(-c2ccco2)nc2scc(-c3ccco3)c12` is below 600 nM. Could you check?
TRUE

Hello, I'm reviewing records and need to know if Ki of `Cc1sc2nc(-c3ccoc3)[nH]c(=O)c2c1C` is below 600 nM. Could you check?
TRUE

Hello, I'm reviewing records and need to know if Ki of `CC(C)(C)C(=O)Nc1nc(C2CC2)cs1` is below 600 nM. Could you check?
FALSE

More entries:
Hello, I'm reviewing records and need to know if Ki of `CSc1sc(NC(=O)C=C(C)C)nc1C` is below 600 nM. Could you check?
FALSE

Hello, I'm reviewing records and need to know if Ki of `CCc1cc2c(=O)[nH]c(-c3ccoc3)nc2s1` is below 600 nM. Could you check?
TRUE

###

Consider the following molecules; for each one, report its Ki.
# study.system: Adenosine receptor A3 (Homo sapiens)
# assay.overview: Displacement of CA200645 from human adenosine A3 receptor expressed in CHO CRE-SPAP cells incubated for 1 hr by fluorescence analysis
# Format: cell-based
# assay.setup: read-out: pKi (converted)
Answers are plain numbers, in nM.

Name the recorded Ki for `O=C(Nc1ccc2[nH]ncc2c1)c1ccc[nH]1` .
2400

Name the recorded Ki for `CCc1cc2c(=O)[nH]c(C3CC3)nc2s1` .
1820

Name the recorded Ki for `O=C(Nc1nc2ccccc2s1)c1cc2ccccc2s1` .
331

Name the recorded Ki for `CCc1cc2c(O)ncnc2s1` .
13500

Name the recorded Ki for `CCc1cc2c(O)nc(N3CCCC3)nc2s1` .
2290

Name the recorded Ki for `O=C(Nc1nc(C2CC2)cs1)c1ccoc1` .
105

// each listed molecule needs a value for Ki
1. O=C(Nc1nc(C2CC2)cs1)c1cc2ccccc2s1
2. COc1cccc2sc(NC(=O)c3cc4ccccc4s3)nc12

1. 33.9
2. 110
